Tested on: NCI-H322M
Assay: Growth inhibition of human NCI-H322M cells assessed as cell growth at 1 uM incubated for 48 hrs by sulforhodamine B assay relative to control
Type: functional
Conditions: read-out: Activity
assay_readout: growth at 1 µM (%)

smiles_entry: Cc1ccc(NC(=O)c2sc3nc4c(cc3c2N)C(=O)CCC4)cc1C
assay_result: 49
--
smiles_entry: Cc1cccc(NC(=O)c2sc3nc4c(cc3c2N)C(=O)CCC4)c1
assay_result: 48
--
smiles_entry: CCc1ccccc1NC(=O)c1sc2nc3c(cc2c1N)C(=O)CCC3
assay_result: 40
--
smiles_entry: COc1cccc(NC(=O)c2sc3nc4c(cc3c2N)CN(Cc2ccccc2)CC4)c1
assay_result: 83
--
smiles_entry: CCc1cccc(C)c1NC(=O)c1sc2nc3c(cc2c1N)C(=O)CCC3
assay_result: 42
